biological target: LOXL2 (Homo sapiens); assay: Lysyl oxidase enzymatic activity, fluorescence-based assay, IC50
Sequence (Q9Y4K0 26-774): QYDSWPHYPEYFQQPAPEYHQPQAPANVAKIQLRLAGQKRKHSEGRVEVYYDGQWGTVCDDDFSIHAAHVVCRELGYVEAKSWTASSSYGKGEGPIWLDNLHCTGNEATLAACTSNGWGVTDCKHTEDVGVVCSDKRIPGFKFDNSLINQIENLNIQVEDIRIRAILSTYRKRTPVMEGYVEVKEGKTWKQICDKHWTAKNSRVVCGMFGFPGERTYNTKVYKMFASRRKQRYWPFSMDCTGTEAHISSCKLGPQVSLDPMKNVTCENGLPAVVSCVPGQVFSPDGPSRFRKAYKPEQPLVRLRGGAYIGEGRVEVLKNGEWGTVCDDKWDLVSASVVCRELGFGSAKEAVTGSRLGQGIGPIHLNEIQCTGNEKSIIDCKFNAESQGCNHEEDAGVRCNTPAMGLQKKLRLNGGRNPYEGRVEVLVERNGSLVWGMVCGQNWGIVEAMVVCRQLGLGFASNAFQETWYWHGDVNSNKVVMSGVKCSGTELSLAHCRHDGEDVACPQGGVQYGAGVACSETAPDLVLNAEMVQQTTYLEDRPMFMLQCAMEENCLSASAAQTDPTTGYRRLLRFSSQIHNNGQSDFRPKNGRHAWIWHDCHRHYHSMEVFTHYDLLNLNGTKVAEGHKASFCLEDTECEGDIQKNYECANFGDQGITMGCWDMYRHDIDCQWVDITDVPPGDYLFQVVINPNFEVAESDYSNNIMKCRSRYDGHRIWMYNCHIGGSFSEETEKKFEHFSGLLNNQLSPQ

{"molecule": "Cl.Cl.NC/C=C(\\F)CS(=O)(=O)c1cccc2cccnc12.O [PXS-5505]", "unit.of.measure": "nM", "IC50": 570}

* * *

assay: 3D cell viability assay (MTS, collagen); type: cell-based, mouse; conditions: mouse, KPC cancer cells (CCs) embedded in polymerized collagen (3D), KPC CC; PXS-5505 0.3 (unit inferred); replicates

{"structure": "Cl.Cl.NC/C=C(\\F)CS(=O)(=O)c1cccc2cccnc12.O", "viability [%]": 97.5}

* * *

assay: 3D cell viability assay (MTS, collagen); assay type: cell-based, mouse; conditions: mouse, KPC cancer cells (CCs) embedded in polymerized collagen (3D), KPC CC; PXS-5505 3 (unit inferred); replicates

{"compound": "Cl.Cl.NC/C=C(\\F)CS(=O)(=O)c1cccc2cccnc12.O [PXS-5505]", "unit.of.measure": "%", "viability": 108}
